Molecular target: Monoamine transporters; serotonin & dopamine (Rattus norvegicus) (UniProt P31652+P23977)
Sequence (P23977 whole entry, looked up): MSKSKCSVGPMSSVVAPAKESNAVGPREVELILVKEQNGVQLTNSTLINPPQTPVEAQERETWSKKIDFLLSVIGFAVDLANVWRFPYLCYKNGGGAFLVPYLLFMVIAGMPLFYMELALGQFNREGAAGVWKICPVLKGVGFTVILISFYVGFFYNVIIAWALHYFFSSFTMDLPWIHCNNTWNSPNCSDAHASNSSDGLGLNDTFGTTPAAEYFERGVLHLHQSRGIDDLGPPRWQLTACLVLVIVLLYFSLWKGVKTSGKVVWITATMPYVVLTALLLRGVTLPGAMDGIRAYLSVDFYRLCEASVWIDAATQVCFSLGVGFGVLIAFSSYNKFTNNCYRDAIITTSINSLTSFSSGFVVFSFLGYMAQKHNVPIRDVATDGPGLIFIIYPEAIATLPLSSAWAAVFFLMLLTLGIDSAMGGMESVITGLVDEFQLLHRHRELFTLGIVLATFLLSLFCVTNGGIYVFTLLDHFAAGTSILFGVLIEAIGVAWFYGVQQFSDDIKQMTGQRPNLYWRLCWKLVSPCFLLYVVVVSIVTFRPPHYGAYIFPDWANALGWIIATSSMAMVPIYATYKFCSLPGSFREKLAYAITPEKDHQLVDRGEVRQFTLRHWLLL
Sequence (P31652 whole entry, looked up): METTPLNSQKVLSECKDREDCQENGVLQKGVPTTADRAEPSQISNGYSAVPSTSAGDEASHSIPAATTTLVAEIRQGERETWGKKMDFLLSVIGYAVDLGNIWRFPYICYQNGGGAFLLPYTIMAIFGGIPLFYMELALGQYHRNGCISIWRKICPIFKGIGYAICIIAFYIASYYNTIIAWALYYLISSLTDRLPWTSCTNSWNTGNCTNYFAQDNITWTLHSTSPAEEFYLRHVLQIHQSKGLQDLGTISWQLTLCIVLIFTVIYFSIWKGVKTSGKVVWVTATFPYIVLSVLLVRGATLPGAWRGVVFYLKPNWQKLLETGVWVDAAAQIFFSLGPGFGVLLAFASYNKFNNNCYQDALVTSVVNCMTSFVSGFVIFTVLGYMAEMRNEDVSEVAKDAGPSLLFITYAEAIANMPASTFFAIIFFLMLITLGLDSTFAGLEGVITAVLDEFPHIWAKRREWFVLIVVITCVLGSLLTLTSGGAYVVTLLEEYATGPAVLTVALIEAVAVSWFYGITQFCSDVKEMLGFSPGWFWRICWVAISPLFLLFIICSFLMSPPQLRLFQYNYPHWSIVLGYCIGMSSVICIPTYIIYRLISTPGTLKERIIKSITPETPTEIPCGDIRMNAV
Experiment: Selectivity index for serotonin and dopamine transporters
Format: protein assay
ENDPOINT NAME: Selectivity

As a guide, the following entries are already answered.
{"COMPOUND": "C/C=C/CN1C2CC[C@@H]1CC(c1ccc(I)cc1)[C@@H]2C(=O)OC (some centres not stated)", "Selectivity": 5}
{"COMPOUND": "C#CCN1C2CC[C@@H]1CC(c1ccc(I)cc1)[C@@H]2C(=O)OC (some centres not stated)", "Selectivity": 7.1}
{"COMPOUND": "CCCc1ccc(C2C[C@H]3CCC([C@H]2C(=O)OC)N3C/C=C/I)cc1 (some centres not stated)", "Selectivity": 0.6}
{"COMPOUND": "COC(=O)[C@@H]1C2CCC(C[C@@H]1c1ccc(Cl)c(Cl)c1)N2C/C=C/I (some centres not stated)", "Selectivity": 1.7}
{"COMPOUND": "COC(=O)[C@H]1C(c2ccccc2)C[C@H]2CCC1N2C/C=C/I (some centres not stated)", "Selectivity": 0.8}

Could you tell me which Selectivity is on file for COC(=O)[C@@H]1C2CCC(C[C@@H]1c1ccc(C)cc1)N2C/C=C/I (some centres not stated) ?
29.4

Could you tell me which Selectivity is on file for COC(=O)[C@@H]1C2CC[C@H](C[C@@H]1c1ccc(I)cc1)N2C ?
0.1

Could you tell me which Selectivity is on file for COC(=O)[C@H]1C(c2ccc(C(C)C)cc2)C[C@H]2CCC1N2C/C=C/I (some centres not stated) ?
0.9

Could you tell me which Selectivity is on file for COC(=O)[C@H]1C(c2ccc(I)cc2)C[C@H]2CCC1N2C/C=C/I (some centres not stated) ?
32

Could you tell me which Selectivity is on file for C=C(Br)CN1C2CC[C@@H]1CC(c1ccc(I)cc1)[C@@H]2C(=O)OC (some centres not stated) ?
6.6

Could you tell me which Selectivity is on file for COC(=O)[C@@H]1C2CCC(C[C@@H]1c1ccc(I)cc1)N2Cc1ccccc1 (some centres not stated) ?
2.3

Could you tell me which Selectivity is on file for COC(=O)[C@H]1C(c2ccc(I)cc2)C[C@H]2CCC1N2Cc1ccccc1C (some centres not stated) ?
2.4
